- Protocol text: Cmax in Swiss albino mouse plasma at 0.2 mmol/Kg, po measured after 24 hrs by HPLC analysis
- Type: ADME, organism-based
- Set-up: time 24 hrs, dose 0.2 mmol/Kg, route po

Smiles data: CCOC(=O)C1=C(C)NC(C)=C(C(=O)OCC)C1c1cccc2c1OCO2
Measure unit: µM
Cmax: 10.1

###

- Assayed system: Dipeptidyl peptidase 4 (Homo sapiens, UniProt P27487)
- Sequence (P27487 whole entry): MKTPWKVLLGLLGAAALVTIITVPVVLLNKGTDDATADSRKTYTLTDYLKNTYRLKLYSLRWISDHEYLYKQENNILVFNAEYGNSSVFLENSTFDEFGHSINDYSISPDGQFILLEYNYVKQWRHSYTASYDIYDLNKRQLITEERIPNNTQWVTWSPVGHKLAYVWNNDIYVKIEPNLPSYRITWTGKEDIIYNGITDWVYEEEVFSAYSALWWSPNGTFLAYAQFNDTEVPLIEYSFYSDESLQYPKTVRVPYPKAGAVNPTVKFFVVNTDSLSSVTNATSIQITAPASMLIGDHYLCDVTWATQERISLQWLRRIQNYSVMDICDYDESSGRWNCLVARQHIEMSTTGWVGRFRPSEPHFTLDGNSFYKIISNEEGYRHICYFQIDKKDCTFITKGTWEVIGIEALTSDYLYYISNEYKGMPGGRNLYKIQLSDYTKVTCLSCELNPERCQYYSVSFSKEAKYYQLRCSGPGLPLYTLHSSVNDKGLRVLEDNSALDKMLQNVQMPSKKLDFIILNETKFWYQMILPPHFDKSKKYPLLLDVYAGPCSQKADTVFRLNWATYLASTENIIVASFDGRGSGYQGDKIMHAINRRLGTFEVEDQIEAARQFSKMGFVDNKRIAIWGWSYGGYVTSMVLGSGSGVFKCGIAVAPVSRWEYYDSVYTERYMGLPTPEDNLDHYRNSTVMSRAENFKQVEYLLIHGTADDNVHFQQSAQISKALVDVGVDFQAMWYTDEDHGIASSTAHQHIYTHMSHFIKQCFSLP
pIC50: −log10 of the molar value.
Measurement kind: pIC50

Smiles data: CCOC(=O)C1=C(C)NC(C)=C(C(=O)OCC)C1c1cccc2c1OCO2
Reported measurement: 3.55

###

- Protocol text: Cytotoxicity against human WPE1-NA22 cells assessed as cell growth inhibition
- Format: toxicity, cell-based
Form field: GI50 (one value per entry).
Measurement kind: GI50 (µM)

Smiles data: CCOC(=O)C1=C(C)NC(C)=C(C(=O)OCC)C1c1cccc2c1OCO2
Measurement kind: GI50
Reported measurement: 24.9
//
Smiles data: COc1cccc2c1C(=O)c1c(O)c3c(c(O)c1C2=O)C[C@@](O)(C(=O)CO)C[C@@H]3O[C@H]1C[C@H](N)[C@H](O)[C@H](C)O1
Measurement kind: GI50
Reported measurement: 11.6
